Cited source for all entries: ChEMBL document CHEMBL1145829

- Test system: MCF7
- Experimental Protocol: cells
- Setup Conditions: Homo sapiens
pEC50: −log10 of the molar value.
Recorded Metric: pEC50

Worked examples, 5 compounds total:
- Compound: "CC1(c2ccc(OCCN3CCCCC3)cc2)c2ccc(O)cc2CCN1c1cccc(Cl)c1 (centres undefined)"
  pEC50: "> 10.00"
- Compound: "Cl.Oc1ccc2c(c1)CC[C@H](c1ccccc1)[C@@H]2c1ccc(OCCN2CCCC2)cc1"
  pEC50: 10.70
- Compound: "CN(C)c1cccc(N2CCc3cc(O)ccc3C2(C)c2ccc(OCCN3CCCCC3)cc2)c1 (centres undefined)"
  pEC50: "> 9.30"
- Compound: "CC1(c2ccc(OCCN3CCCCC3)cc2)c2ccc(O)cc2CCN1c1cccc(O)c1 (centres undefined)"
  pEC50: "> 10.00"
- Compound: "CCC(=C(c1ccc(O)cc1)c1ccc(OCCN(C)C)cc1)c1ccccc1"
  pEC50: 9.92

Please tell me: pEC50 of CC/C(=C(\c1ccccc1)c1ccc(OCCN(C)C)cc1)c1ccccc1 , system MCF7?
8.00

Please tell me: pEC50 of CC1(c2ccc(OCCN3CCCC3)cc2)c2ccc(O)cc2CCN1c1ccc(Cl)cc1 (centres undefined) , system MCF7?
> 10.00

Please tell me: pEC50 of CC(C)c1cccc(N2CCc3cc(O)ccc3C2(C)c2ccc(OCCN3CCCCC3)cc2)c1 (centres undefined) , system MCF7?
> 9.40

Please tell me: pEC50 of CC1(c2ccc(OCCN3CCCC3)cc2)c2ccc(O)cc2CCN1c1cccc(F)c1 (centres undefined) , system MCF7?
> 10.00

----------
- Target Desc: UniProt:Q92731
pIC50: −log10 of the molar value.
# if value of pIC50 reaches 7, tag True; if it stays below, tag False

Illustrative cases are given below, each with its answer.
- Molecule: "CN(C)c1cccc(N2CCc3cc(O)ccc3C2(C)c2ccc(OCCN3CCCCC3)cc2)c1 (stereo not given)"
  Classification: "False"
- Molecule: "CC1(c2ccc(OCCN3CCCCC3)cc2)c2ccc(O)cc2CCN1c1cccc(O)c1 (stereo not given)"
  Classification: "True"
- Molecule: "Cc1ccc(N2CCc3cc(O)ccc3C2(C)c2ccc(OCCN3CCCC3)cc2)cc1 (stereo not given)"
  Classification: "False"
- Molecule: "Cc1ccc(N2CCc3cc(O)ccc3C2(C)c2ccc(OCCN3CCCCC3)cc2)cc1 (stereo not given)"
  Classification: "False"

For the next question, use this molecule.
Determine whether this molecule has pIC50 no lower than 7: CC(C)c1ccc(N2CCc3cc(O)ccc3C2(C)c2ccc(OCCN3CCCCC3)cc2)cc1 (stereo not given)
False

----------
- Test system: Rattus norvegicus
- Experimental Protocol: Maximal blood concentration after peroral administration (dose normalized) (5 mg/kg) in conscious rat
- Assay type: ADME, organism-based
- Design: dose 5 mg/kg, route oral
- Setup Conditions: in vivo, po
Recorded Metric: log10 of Cmax (log10 of the value in nM)
Transform log10 | Measure Cmax | Unit nM

Worked examples, 6 molecules total:
- Molecule: "Oc1ccc2c(c1)CCN(c1ccccc1)C2c1ccc(OCCN2CCCCC2)cc1 (stereo not drawn)"
  Target Desc: "Rattus norvegicus"
  log10 of Cmax: 1.49
- Molecule: "CC1(c2ccc(OCCN3CCCC3)cc2)c2ccc(O)cc2CCN1c1cccc(O)c1 (stereo not drawn)"
  Target Desc: "Rattus norvegicus"
  log10 of Cmax: 0.72
- Molecule: "Cl.O=C(c1ccc(OCCN2CCCCC2)cc1)c1c(-c2ccc(O)cc2)sc2cc(O)ccc12 [RALOXIFENE HYDROCHLORIDE]"
  Target Desc: "Rattus norvegicus"
  log10 of Cmax: 0.88
- Molecule: "Cl.Oc1ccc2c(c1)CC[C@H](c1ccccc1)[C@@H]2c1ccc(OCCN2CCCC2)cc1"
  Target Desc: "Rattus norvegicus"
  log10 of Cmax: 1.19
- Molecule: "CC1(c2ccc(OCCN3CCCCC3)cc2)c2ccc(O)cc2CCN1c1ccc(F)cc1 (stereo not drawn)"
  Target Desc: "Rattus norvegicus"
  log10 of Cmax: 1.20
- Molecule: "CC1(c2ccc(OCCN3CCCC3)cc2)c2ccc(O)cc2CCN1c1ccc(F)cc1 (stereo not drawn)"
  Target Desc: "Rattus norvegicus"
  log10 of Cmax: 1.30

// query log10 of Cmax value for entry CC1(c2ccc(OCCN3CCCCC3)cc2)c2ccc(O)cc2CCN1c1ccccc1 (stereo not drawn)
0.72

// query log10 of Cmax value for entry Oc1ccc2c(c1)CCN(c1ccccc1)C2c1ccc(OCCN2CCCC2)cc1 (stereo not drawn)
1.74
